subjectOfTest: Integrin alpha-IIb/beta-3 (Homo sapiens, UniProt P05106+P08514)
Sequence (P08514 32-887 limits assumed, one chain of several): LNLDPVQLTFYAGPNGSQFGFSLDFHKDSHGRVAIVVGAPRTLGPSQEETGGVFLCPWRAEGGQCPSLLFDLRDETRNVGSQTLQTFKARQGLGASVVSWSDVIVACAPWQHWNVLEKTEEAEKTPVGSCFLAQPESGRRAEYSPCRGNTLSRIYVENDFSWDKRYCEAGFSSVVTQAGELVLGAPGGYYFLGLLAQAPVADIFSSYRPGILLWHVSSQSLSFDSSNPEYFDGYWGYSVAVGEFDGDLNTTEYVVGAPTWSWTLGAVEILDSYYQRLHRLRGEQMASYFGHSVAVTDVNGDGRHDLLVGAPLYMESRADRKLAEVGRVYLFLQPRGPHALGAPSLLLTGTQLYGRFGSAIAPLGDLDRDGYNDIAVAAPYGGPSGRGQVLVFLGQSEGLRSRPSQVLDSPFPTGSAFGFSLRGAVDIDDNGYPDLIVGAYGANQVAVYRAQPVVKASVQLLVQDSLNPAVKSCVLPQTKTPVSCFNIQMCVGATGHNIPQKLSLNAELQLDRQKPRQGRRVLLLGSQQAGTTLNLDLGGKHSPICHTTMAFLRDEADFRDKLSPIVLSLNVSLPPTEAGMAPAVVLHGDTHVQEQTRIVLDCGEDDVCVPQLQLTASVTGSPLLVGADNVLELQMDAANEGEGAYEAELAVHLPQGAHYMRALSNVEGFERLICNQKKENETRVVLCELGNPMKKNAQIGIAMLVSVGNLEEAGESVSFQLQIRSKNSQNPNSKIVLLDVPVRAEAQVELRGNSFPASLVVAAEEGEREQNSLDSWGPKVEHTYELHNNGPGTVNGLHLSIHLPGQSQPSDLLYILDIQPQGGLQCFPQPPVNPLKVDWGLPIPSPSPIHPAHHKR
Sequence (P08514 891-1039 limits assumed, one chain of several): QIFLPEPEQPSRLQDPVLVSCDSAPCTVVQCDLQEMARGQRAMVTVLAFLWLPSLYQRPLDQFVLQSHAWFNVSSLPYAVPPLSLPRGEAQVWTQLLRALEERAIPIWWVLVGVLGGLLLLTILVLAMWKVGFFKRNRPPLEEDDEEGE
testName: Inhibitory activity of fibrinogen binding to purified immobilized glycoprotein (fibrinogen receptor).
Note to self: use Criterion met only for IC50 readings below 0.04 µM; a reading exactly at 0.04 µM still gets Criterion not met.

CC(C)(NC(=O)c1cc2cc(C(=N)N)ccc2[nH]1)C(=O)NC(CC(=O)O)c1ccccc1 (stereo not drawn)    Criterion not met
CN(CCC(=O)NC(CC(=O)O)c1ccccc1)C(=O)c1cc2cc(C(=N)N)ccc2[nH]1 (stereo not drawn)    Criterion met
N=C(N)c1ccc2[nH]c(C(=O)NCC(=O)NC(CC(=O)O)c3ccccc3)cc2c1 (stereo not drawn)    Criterion not met
CCCCS(=O)(=O)N[C@@H](CNC(=O)CCNC(=O)c1cc2cc(C(=N)N)ccc2o1)C(=O)O    Criterion met
CN(CCC(=O)NC(CC(=O)O)c1ccccc1)C(=O)c1cc2cc(C(=N)N)ccc2o1 (stereo not drawn)    Criterion not met
N=C(N)c1ccc2[nH]c(C(=O)Nc3cccc(C(=O)NC(CC(=O)O)c4ccccc4)c3)cc2c1 (stereo not drawn)    Criterion not met
CCCCS(=O)(=O)NC(CNC(=O)CCNC(=O)c1c[nH]c2cc(C(=N)N)ccc12)C(=O)O (stereo not drawn)    Criterion met
N=C(N)c1ccc2oc(C(=O)NCCC(=O)NC(CC(=O)O)c3ccccc3)cc2c1 (stereo not drawn)    Criterion not met
CCCCS(=O)(=O)NC(CNC(=O)CCNC(=O)c1[nH]nc2cc(C(=N)N)ccc12)C(=O)O (stereo not drawn)    Criterion met

In the following, a different compound is considered.
Ask: Just wondering, is IC50 of N=C(N)c1ccc2[nH]c(C(=O)NCCC(=O)NC(CC(=O)O)c3ccccc3)cc2c1 (stereo not drawn) below 0.04 µM?
Reply: Criterion not met

====

Assignment: determine reported IC50 for the given compounds.
subjectOfTest: Integrin alpha-V/beta-3 (Homo sapiens, UniProt P05106+P06756)
Sequence (P05106 27-788 limits assumed): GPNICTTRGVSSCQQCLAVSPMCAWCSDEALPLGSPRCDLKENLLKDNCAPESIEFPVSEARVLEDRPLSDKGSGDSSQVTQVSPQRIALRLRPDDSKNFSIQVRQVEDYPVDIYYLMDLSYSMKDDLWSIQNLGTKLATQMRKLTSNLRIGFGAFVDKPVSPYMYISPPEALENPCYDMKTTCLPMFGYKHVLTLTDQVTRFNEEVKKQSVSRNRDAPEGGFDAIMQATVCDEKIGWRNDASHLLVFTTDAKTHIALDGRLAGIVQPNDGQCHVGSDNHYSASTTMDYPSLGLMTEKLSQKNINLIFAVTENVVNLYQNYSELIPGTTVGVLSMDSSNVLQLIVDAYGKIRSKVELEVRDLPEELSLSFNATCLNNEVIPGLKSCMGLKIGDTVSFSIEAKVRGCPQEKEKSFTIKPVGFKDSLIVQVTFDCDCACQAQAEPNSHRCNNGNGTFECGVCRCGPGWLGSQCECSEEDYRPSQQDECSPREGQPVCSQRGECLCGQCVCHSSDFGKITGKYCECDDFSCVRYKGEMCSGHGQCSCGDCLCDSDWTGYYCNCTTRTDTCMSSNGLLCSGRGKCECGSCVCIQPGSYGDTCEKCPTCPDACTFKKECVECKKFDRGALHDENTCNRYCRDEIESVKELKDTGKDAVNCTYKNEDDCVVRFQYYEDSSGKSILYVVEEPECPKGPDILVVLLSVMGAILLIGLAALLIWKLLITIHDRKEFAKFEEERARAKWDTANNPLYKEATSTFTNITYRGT
Sequence (P06756 31-889 limits assumed): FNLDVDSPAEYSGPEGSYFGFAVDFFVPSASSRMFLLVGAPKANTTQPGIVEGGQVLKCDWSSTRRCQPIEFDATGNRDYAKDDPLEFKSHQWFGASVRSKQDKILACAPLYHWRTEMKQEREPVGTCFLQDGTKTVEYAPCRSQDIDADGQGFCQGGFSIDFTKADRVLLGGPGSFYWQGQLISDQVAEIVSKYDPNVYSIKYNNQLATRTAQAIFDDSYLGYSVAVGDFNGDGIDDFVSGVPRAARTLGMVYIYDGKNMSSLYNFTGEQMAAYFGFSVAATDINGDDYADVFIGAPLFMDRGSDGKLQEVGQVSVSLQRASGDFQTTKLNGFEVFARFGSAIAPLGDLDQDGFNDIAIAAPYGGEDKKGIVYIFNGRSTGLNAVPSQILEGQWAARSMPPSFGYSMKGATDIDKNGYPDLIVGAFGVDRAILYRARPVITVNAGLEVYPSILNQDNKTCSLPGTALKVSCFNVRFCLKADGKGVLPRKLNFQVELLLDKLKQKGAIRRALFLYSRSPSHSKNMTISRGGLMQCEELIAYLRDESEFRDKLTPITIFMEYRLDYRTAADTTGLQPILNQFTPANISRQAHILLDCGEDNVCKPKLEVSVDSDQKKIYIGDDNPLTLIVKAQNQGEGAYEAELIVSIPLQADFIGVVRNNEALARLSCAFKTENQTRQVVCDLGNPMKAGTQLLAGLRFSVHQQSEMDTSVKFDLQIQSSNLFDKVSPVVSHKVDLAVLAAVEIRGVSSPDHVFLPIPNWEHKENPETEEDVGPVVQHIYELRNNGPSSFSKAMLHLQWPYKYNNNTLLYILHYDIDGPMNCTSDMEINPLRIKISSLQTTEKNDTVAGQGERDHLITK
Sequence (P06756 891-1048 limits assumed): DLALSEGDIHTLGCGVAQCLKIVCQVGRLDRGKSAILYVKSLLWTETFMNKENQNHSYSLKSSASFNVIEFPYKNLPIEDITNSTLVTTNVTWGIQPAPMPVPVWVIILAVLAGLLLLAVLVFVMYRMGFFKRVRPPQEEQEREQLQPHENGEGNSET
testName: Inhibition of vitronectin binding to the purified immobilized vitronectin receptor (alpha v, beta 3).
Format: protein-complex assay

N=C(N)c1ccc2oc(C(=O)NCCC(=O)NC[C@H](NS(=O)(=O)c3ccc(I)cc3)C(=O)O)cc2c1    > 100 µM
CN(C)c1cccc2c(S(=O)(=O)N[C@@H](CNC(=O)CCNC(=O)c3cc4cc(C(=N)N)ccc4o3)C(=O)O)cccc12    > 100 µM
N=C(N)c1ccc2oc(C(=O)NCCC(=O)NC(CC(=O)O)c3cccnc3)cc2c1 (centres undefined)    100 µM

Next compound, IC50 to be filled in.
Ask: IC50 of N=C(N)c1ccc2oc(C(=O)NCCC(=O)NC[C@H](N)C(=O)O)cc2c1 on Integrin alpha-V/beta-3 (Homo sapiens, UniProt P05106+P06756)?
Reply: > 100 µM

====

subjectOfTest: Integrin alpha-IIb/beta-3 (Homo sapiens, UniProt P05106+P08514)
testName: Inhibitory activity of fibrinogen binding to purified immobilized glycoprotein (fibrinogen receptor).
pIC50: −log10 of the molar value.
Mark Not met for pIC50 values under 7, and Met for everything at or above.

N=C(N)c1ccc2oc(C(=O)NCCC(=O)NC[C@H](NS(=O)(=O)c3ccccc3)C(=O)O)cc2c1    Met
N=C(N)c1ccc2oc(C(=O)NCCC(=O)NC(CC(=O)O)c3cccnc3)cc2c1 (stereo not drawn)    Met
CC(CC(=O)NC(CC(=O)O)c1ccccc1)NC(=O)c1cc2cc(C(=N)N)ccc2o1 (stereo not drawn)    Met
N=C(N)c1ccc2oc(C(=O)NCCC(=O)NC(CC(=O)O)c3ccc(F)c(F)c3)cc2c1 (stereo not drawn)    Not met
CN(C)c1cccc2c(S(=O)(=O)N[C@@H](CNC(=O)CCNC(=O)c3cc4cc(C(=N)N)ccc4o3)C(=O)O)cccc12    Met
N=C(N)c1ccc2[nH]c(C(=O)N3CCC(C(=O)NC(CC(=O)O)c4ccccc4)CC3)cc2c1 (stereo not drawn)    Not met
CC(CC(=O)NC(CC(=O)O)c1ccccc1)NC(=O)c1cc2cc(C(=N)N)ccc2[nH]1 (stereo not drawn)    Not met
N=C(N)c1ccc2oc(C(=O)N3Cc4ccccc4CC3C(=O)NC(CC(=O)O)c3ccccc3)cc2c1 (stereo not drawn)    Not met

Ask: Reported pIC50 reaches at least 7 for N=C(N)c1ccc2oc(C(=O)NCC(=O)NC(CC(=O)O)c3ccccc3)cc2c1 (stereo not drawn) ?
Reply: Not met

Ask: Please give the result for N=C(N)c1ccc2oc(C(=O)N3CCC[C@@H]3C(=O)NC(CC(=O)O)c3ccccc3)cc2c1 (stereo partly drawn) too.
Reply: Not met

Ask: Can you handle CN(CC(=O)NC(CC(=O)O)c1ccccc1)C(=O)c1cc2cc(C(=N)N)ccc2[nH]1 (stereo not drawn) next?
Reply: Not met

Ask: Query N=C(N)c1ccc2oc(C(=O)NCCC(=O)NC[C@H](N)C(=O)O)cc2c1 next
Reply: Met

Ask: Also need N=C(N)c1ccc2oc(C(=O)NCCC(=O)NCCC(=O)O)cc2c1 , thanks.
Reply: Met
